- Tested on: M14
- Assay Overview: NCI-60 SRB screen
- Conditions Used: M14, 48 h
I'd appreciate it if you could supply TGI values for the items below.
Respond numerically; units are µM and should not be typed.

# value of TGI, M14, item CCCC(C(=O)O)N1C(=O)/C(=C/C=C/c2ccc([N+](=O)[O-])o2)SC1=S (centres unmarked) = 3.77

# value of TGI, M14, item CC(C)C(C(=O)O)N1C(=O)/C(=C/C=C/c2ccc([N+](=O)[O-])o2)SC1=S (centres unmarked) = 3.21

# value of TGI, M14, item O=C(O)C(c1ccccc1)N1C(=O)/C(=C/C=C/c2ccc([N+](=O)[O-])o2)SC1=S (centres unmarked) = 27.0

# value of TGI, M14, item O=C(O)CCN1C(=O)/C(=C/C=C/c2ccc([N+](=O)[O-])o2)SC1=S [12b] = 3.05

# value of TGI, M14, item CCCCC(C(=O)O)N1C(=O)/C(=C/C=C/c2ccc([N+](=O)[O-])o2)SC1=S (centres unmarked) = 3.75

---

- Tested on: UO-31
- Assay Overview: cells
- Conditions Used: Homo sapiens, UO-31, 48 h
Quantity Name: GI50 (nM)
Respond numerically; units are nM and should not be typed.

# value of GI50, UO-31, item CCCCC(C(=O)O)N1C(=O)/C(=C/C=C/c2ccc([N+](=O)[O-])o2)SC1=S (stereo not drawn) = 1670

# value of GI50, UO-31, item CCCC(C(=O)O)N1C(=O)/C(=C/C=C/c2ccc([N+](=O)[O-])o2)SC1=S (stereo not drawn) = 1630

# value of GI50, UO-31, item O=C(O)CCCCCN1C(=O)/C(=C/C=C/c2ccc([N+](=O)[O-])o2)SC1=S [14b] = 520

# value of GI50, UO-31, item O=C(O)C(c1ccccc1)N1C(=O)/C(=C/C=C/c2ccc([N+](=O)[O-])o2)SC1=S (stereo not drawn) = 10800

# value of GI50, UO-31, item O=C(O)CCN1C(=O)/C(=C/C=C/c2ccc([N+](=O)[O-])o2)SC1=S [12b] = 1050

# value of GI50, UO-31, item CC(C)C(C(=O)O)N1C(=O)/C(=C/C=C/c2ccc([N+](=O)[O-])o2)SC1=S (stereo not drawn) = 1330

---

- Test system: UACC-257
- Conditions Used: UACC-257, 48 h
The label is Criterion met for TGI below 4 µM and Criterion not met for TGI equal to or exceeding 4 µM.

Prompt: Hello, I'm reviewing records and need to know if TGI of O=C(O)C(c1ccccc1)N1C(=O)/C(=C/C=C/c2ccc([N+](=O)[O-])o2)SC1=S (centres unmarked) is below 4 µM. Could you check?
Response: Criterion not met

Prompt: Hello, I'm reviewing records and need to know if TGI of CCCCC(C(=O)O)N1C(=O)/C(=C/C=C/c2ccc([N+](=O)[O-])o2)SC1=S (centres unmarked) is below 4 µM. Could you check?
Response: Criterion not met

Prompt: Hello, I'm reviewing records and need to know if TGI of CC(C)C(C(=O)O)N1C(=O)/C(=C/C=C/c2ccc([N+](=O)[O-])o2)SC1=S (centres unmarked) is below 4 µM. Could you check?
Response: Criterion met

Prompt: Hello, I'm reviewing records and need to know if TGI of CCCC(C(=O)O)N1C(=O)/C(=C/C=C/c2ccc([N+](=O)[O-])o2)SC1=S (centres unmarked) is below 4 µM. Could you check?
Response: Criterion not met

Sourced from paper PMC12655351
